- test-target: human Fc (human)
- assay: ELISA, negative control
readout: optical density
Answer format: number, then unit.

INSERT INTO results (binder, readout, endpoint_value) VALUES
  ('366_F02 (antibody, V domains shown) VH: EVQLLESGGGLVQPGGSLRLSCAASGFTFSSYGMNWVRQAPGKGLEWVSGINYNSGYTGYADSVKGRFTISRDNSKNTLYLQMNSLRAEDTAVYYCARGANWHDTHLDYWGQGTLVTVSS VL: DIQMTQSPSSLSASVGDRVTITCRASQSILTYLNWYQQKPGKAPKLVIYAATSRHSGVPSRFSGSGSGTDFTLTISSLQPEDFATYYCQQSYDNPLTFGGGTKVEIK', 'optical density', '0.371 OD'),
  ('370_B06 (antibody, V domains shown) VH: EVQLLESGGGLVQPGGSLRLSCAASGFTFSSYGMHWVRQAPGKGLEWVAGINYNGGYTSYADSVKGRFTISRDNSKNTLYLQMNSLRAEDTAVYYCARAATWHDTHLDYWGQGTLVTVSS VL: DIQMTQSPSSLSASVGDRVTITCRASQSIVSYVNWYQQKPGKAPKLVIYAATSRASGVPSRFSGSGSGTDFTLTISSLQPEDFATYYCQQSYETPLTFGGGTKVEIK', 'optical density', '0.441 OD');

For this binder ( 366_E03 (antibody, V domains shown) VH: EVQLLESGGGLVQPGGSLRLSCAASGFTFDSYGMNWVRQAPGKGLEWVSNINYNGGYKSYADSVKGRFTISRDNSKNTLYLQMNSLRAEDTAVYYCARSATWHDTHLDYWGQGTLVTVSS VL: DIQMTQSPSSLSASVGDRVTITCRASQSILTYLNWYQQKPGKAPKLVIYAATSRHSGVPSRFSGSGSGTDFTLTISSLQPEDFATYYCQQSYSNPLTFGGGTKVEIK ), measured optical density is 0.384 OD

Where these numbers come from: patent US20210380703A1
